Target: NCCa-ATP channel (Rattus norvegicus, UniProt Q09429)
Construct: endogenous in cells; host or cells: freshly isolated native reactive astrocytes (NRA/R1 astrocytes) from the hypoxic inner zone of the gliotic capsule in brain
Sequence (Q09429 whole entry): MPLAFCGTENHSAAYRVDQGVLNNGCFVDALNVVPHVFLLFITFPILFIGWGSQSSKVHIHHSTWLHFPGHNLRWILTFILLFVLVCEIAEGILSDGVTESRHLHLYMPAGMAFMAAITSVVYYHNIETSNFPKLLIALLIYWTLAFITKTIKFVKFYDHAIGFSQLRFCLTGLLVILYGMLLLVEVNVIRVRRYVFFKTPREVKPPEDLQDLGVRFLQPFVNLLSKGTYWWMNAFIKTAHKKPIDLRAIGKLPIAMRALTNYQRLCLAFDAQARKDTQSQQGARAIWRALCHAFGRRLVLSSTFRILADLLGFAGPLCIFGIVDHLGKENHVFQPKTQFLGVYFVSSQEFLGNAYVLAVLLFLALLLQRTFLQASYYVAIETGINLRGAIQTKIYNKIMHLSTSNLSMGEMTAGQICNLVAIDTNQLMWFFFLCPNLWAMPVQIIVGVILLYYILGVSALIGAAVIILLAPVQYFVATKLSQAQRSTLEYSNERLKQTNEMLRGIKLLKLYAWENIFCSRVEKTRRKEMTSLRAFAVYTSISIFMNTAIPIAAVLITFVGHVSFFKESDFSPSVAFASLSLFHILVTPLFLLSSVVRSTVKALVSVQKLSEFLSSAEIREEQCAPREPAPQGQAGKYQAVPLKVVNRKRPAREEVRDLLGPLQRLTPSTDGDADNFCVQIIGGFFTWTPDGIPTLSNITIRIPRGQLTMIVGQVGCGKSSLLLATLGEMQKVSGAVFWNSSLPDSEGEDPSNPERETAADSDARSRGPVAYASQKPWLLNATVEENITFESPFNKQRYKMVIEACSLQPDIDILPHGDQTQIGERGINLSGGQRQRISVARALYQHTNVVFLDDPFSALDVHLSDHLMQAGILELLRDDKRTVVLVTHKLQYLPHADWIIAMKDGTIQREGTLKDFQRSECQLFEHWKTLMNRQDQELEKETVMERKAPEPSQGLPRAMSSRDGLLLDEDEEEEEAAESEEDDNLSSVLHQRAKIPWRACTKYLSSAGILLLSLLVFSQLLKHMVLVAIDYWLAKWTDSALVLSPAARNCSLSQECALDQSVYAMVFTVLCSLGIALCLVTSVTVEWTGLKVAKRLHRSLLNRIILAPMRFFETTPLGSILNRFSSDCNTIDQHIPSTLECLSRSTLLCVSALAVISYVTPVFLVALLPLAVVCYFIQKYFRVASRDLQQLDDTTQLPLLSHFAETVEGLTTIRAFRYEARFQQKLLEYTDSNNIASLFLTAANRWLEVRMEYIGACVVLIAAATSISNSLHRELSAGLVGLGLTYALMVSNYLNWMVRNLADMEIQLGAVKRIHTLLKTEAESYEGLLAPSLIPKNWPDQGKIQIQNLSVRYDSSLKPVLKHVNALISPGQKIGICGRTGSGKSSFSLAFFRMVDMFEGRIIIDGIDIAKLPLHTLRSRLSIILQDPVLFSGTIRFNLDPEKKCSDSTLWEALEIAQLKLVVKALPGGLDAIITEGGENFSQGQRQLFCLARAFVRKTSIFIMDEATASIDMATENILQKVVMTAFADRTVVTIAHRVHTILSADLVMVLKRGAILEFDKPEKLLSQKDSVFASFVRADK
Sequence (Q9ESQ5 whole entry partner): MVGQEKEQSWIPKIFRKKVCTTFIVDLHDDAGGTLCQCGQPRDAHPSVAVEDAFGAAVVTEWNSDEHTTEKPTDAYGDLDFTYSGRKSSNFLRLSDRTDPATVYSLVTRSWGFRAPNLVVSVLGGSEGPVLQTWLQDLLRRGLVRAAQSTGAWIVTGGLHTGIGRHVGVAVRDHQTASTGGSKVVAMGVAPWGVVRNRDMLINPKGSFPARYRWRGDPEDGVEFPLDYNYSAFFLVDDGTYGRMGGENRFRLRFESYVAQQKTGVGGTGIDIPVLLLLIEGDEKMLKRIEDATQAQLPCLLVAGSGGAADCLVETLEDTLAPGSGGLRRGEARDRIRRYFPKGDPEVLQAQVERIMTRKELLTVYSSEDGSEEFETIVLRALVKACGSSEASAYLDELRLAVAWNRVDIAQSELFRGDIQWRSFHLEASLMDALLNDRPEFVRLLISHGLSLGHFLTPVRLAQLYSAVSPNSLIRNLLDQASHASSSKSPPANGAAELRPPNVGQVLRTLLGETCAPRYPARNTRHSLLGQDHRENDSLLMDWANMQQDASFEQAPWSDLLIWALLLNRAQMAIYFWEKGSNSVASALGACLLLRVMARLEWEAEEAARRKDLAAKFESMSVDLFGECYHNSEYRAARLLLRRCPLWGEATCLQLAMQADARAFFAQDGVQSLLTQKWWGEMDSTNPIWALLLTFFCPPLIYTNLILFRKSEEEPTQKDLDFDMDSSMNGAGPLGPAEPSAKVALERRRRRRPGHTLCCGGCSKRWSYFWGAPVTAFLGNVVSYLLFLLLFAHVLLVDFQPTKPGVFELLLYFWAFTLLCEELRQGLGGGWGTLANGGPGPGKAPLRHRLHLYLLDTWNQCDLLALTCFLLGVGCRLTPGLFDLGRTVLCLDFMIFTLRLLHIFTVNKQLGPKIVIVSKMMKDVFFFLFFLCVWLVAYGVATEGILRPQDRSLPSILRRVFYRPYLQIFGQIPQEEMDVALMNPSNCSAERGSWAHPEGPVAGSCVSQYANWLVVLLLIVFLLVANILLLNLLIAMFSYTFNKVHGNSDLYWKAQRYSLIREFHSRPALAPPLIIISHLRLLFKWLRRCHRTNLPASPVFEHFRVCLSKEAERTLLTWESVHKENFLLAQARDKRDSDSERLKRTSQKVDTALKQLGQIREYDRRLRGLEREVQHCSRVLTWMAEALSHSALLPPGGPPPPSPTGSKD
Assay: Patch clamp of NCCa-ATP channel in freshly isolated native reactive astrocytes
Format: cell-based
Conditions: Reactive Astrocytes; read-out: [ATP]1 EC50 (um)

>  <record_smiles>
Nc1ncnc2c1ncn2[C@@H]1O[C@H](COP(=O)(O)OP(=O)(O)OP(=O)(O)O)[C@@H](O)[C@H]1O

>  <EC50>
790 nM

$$$$
